Biological target: rat NK1 (rNK1) receptor (Rattus norvegicus, UniProt P14600)
Construct: expressed in transfected cells; host or cells: CHO (rNK-1/CHO cell line from Dr. James Krause)
Sequence (P14600 whole entry): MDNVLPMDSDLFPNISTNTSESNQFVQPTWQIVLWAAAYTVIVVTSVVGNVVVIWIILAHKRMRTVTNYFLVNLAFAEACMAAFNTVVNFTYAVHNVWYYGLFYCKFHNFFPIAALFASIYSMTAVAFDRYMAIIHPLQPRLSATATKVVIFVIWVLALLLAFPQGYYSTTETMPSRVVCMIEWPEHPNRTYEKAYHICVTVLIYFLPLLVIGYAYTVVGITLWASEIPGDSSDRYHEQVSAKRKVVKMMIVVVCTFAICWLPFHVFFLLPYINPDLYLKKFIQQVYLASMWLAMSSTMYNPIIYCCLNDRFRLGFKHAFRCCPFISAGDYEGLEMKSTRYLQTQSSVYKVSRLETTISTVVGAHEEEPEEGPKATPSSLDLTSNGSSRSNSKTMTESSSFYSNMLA
Experiment: Radioligand competition binding, [3H]substance P, rNK1/CHO membranes
Details: IC50, rNK1, Substance P radioligand, membranes from transfected CHO cells
Peptide text beside a SMILES is read from it.
Measured IC50 accompanies every entry in the list below.
parameter: IC50 (nM)

compound | parameter | reportedMeasurement
CCCC[C@@H](C(=O)N1CCC[C@H]1C(=O)N[C@@H](CC(C)C)C(=O)N[C@@H](Cc1c[nH]c2ccccc12)C(=O)OCc1cc(C(F)(F)F)cc(C(F)(F)F)c1)N(C)C(=O)[C@H](Cc1ccccc1)NC(=O)CNC(=O)[C@@H](C)NC(=O)[C@@H](N)Cc1ccc(O)cc1 | IC50 | 135
CC(C)C[C@H](NC(=O)[C@@H]1CCCN1C(=O)CNC(=O)[C@H](Cc1ccccc1)NC(=O)CNC(=O)[C@@H](C)NC(=O)[C@@H](N)Cc1ccc(O)cc1)C(=O)N[C@@H](Cc1c[nH]c2ccccc12)C(=O)OCc1cc(C(F)(F)F)cc(C(F)(F)F)c1 [TY006] (HELM PEPTIDE1{Y.[dA].G.F.G.P.L.W.[FC(F)(F)c1cc(CO[*:1])cc(C(F)(F)F)c1]}$$$$V2.0) | IC50 | 15.6
CC(C)C[C@H](NC(=O)[C@@H]1CCCN1C(=O)[C@H](CC(C)C)NC(=O)[C@H](Cc1ccccc1)NC(=O)CNC(=O)[C@@H](C)NC(=O)[C@@H](N)Cc1ccc(O)cc1)C(=O)N[C@@H](Cc1c[nH]c2ccccc12)C(=O)OCc1cc(C(F)(F)F)cc(C(F)(F)F)c1 | IC50 | 20.9
CSCC[C@H](NC(=O)[C@H](Cc1ccccc1)NC(=O)CNC(=O)[C@@H](C)NC(=O)[C@@H](N)Cc1ccc(O)cc1)C(=O)N1CCC[C@H]1C(=O)N[C@@H](CC(C)C)C(=O)N[C@@H](Cc1c[nH]c2ccccc12)C(=O)OCc1cc(C(F)(F)F)cc(C(F)(F)F)c1 | IC50 | 6.4
CC(C)C[C@H](NC(=O)[C@@H]1CCCN1C(=O)[C@H](Cc1ccccc1)NC(=O)[C@H](Cc1ccccc1)NC(=O)CNC(=O)[C@@H](C)NC(=O)[C@@H](N)Cc1ccc(O)cc1)C(=O)N[C@@H](Cc1c[nH]c2ccccc12)C(=O)OCc1cc(C(F)(F)F)cc(C(F)(F)F)c1 | IC50 | 19.3
CC(C)C[C@H](NC(=O)[C@@H]1CCCN1C(=O)[C@H](CC[S+](C)[O-])NC(=O)[C@H](Cc1ccccc1)NC(=O)CNC(=O)[C@@H](C)NC(=O)[C@@H](N)Cc1ccc(O)cc1)C(=O)N[C@@H](Cc1c[nH]c2ccccc12)C(=O)OCc1cc(C(F)(F)F)cc(C(F)(F)F)c1 (stereo partly shown) | IC50 | 54.5
CC(C)C[C@H](NC(=O)[C@@H]1CCCN1C(=O)[C@@H](Cc1ccccc1)NC(=O)[C@H](Cc1ccccc1)NC(=O)CNC(=O)[C@@H](C)NC(=O)[C@@H](N)Cc1ccc(O)cc1)C(=O)N[C@@H](Cc1c[nH]c2ccccc12)C(=O)OCc1cc(C(F)(F)F)cc(C(F)(F)F)c1 | IC50 | 66.7

Where do the numbers come from? From patent US8026218B2.
